For each entry below, report its exon inclusion enrichment index value.
B1: mRNA-splicing (parent)
chain: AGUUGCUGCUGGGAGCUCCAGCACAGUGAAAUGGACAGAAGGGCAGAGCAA

- Variants of: B1
- assay procedure: exon inclusion enrichment index; higher = more inclusion; WT1 exon 5 minigene, HEK293
One number for each entry.

C6A U7A C9A U10A C36A A37G = 0.204
G5A U7C G8A U10C C44G A45C = 3.34
G5U G8U C9U G48C = 0.251
G5A C6U U7A G8U C9A U17C C18G = 0.0591
G5A U7C G8A U10C G46C = 2.03

Give one value of exon inclusion enrichment index per listed variant.
1. G5U G8U C9U G43U C44G
2. C6G U7C U10C
3. G5U G8U C9U A39C A40G
4. G5C C6A U7C G8A U10A A37G G38C
5. G5A C6U U7A G8U C9A U32A G33A
6. G5C C6U G8C C9U U10C U27G G28C
7. C36U A37C
8. G5C C6A U7C G8A U10A G38A A39U

Data returned:
1: 0.112; 2: 3.22; 3: 0.162; 4: 0.228; 5: 0.00941; 6: 1.04; 7: 0.0746; 8: 0.0079

Provide each entry's exon inclusion enrichment index from the list below.
1. G2U U3C G5A C6U U7A G8U C9A
2. G5C C6A U7C G8A U10A C24G A25U
3. G5A U7C G8A U10C A40G G41C
4. C6A U7C C9A U10C A35U C36A

Data returned:
1. 0.557
2. 0.184
3. 3.76
4. 0.00835

# credit: the RNAGym collection of RNA variant scans (doi:10.1101/gr.219683.116)
